Origin of the recorded values: paper PMC4336329

Each record here notes measured hERG current change (%, negative = inhibition) at 1uM.
# EXPERIMENTAL_SYSTEM: human ether-à-go-go-related gene (hERG) potassium channel (human)
# Sequence (Q12809 whole entry, looked up): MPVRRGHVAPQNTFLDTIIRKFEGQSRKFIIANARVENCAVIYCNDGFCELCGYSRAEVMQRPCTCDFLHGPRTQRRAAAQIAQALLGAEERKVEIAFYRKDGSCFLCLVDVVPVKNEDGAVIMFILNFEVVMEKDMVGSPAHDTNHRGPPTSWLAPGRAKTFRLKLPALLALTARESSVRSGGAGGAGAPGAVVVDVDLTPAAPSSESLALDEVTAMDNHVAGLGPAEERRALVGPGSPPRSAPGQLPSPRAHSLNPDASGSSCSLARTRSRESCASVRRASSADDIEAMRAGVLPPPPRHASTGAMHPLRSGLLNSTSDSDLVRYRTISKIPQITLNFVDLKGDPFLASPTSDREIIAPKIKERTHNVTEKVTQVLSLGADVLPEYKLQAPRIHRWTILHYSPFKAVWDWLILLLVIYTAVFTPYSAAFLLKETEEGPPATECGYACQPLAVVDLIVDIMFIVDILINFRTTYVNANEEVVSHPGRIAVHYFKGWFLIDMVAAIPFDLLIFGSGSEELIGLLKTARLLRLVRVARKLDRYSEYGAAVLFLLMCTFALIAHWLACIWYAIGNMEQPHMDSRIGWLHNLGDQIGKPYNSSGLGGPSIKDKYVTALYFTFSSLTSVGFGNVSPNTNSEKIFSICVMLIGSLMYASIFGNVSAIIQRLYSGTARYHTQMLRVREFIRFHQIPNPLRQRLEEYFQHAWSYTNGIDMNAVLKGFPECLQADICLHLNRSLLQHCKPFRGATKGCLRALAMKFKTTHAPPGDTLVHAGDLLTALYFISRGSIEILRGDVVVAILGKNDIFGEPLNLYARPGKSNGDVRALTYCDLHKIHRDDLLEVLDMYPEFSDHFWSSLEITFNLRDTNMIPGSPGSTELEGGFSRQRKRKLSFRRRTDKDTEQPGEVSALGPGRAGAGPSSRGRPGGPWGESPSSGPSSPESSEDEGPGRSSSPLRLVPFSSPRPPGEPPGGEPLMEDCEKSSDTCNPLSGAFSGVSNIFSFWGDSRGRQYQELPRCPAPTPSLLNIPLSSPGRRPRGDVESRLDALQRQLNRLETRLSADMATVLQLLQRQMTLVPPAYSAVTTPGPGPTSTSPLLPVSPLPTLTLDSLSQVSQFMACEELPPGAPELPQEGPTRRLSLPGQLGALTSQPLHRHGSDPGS
# ASSAY_SUMMARY: primary screen, population patch clamp on CHO cells stably expressing hERG; higher = less effect of the substance
The campaign covered roughly 310,000 compounds. About 2,200 (0.71%) showed an effect of 50% or more. The effect is printed as a negative number. Only a selection was taken, and strong results are over-represented in it overall.
All answers are understood in %, so give the number only.

>  <INPUT_SMILES>
CSc1nnc2c3ccccc3n(Cc3ccccc3)c2n1

>  <EXPERIMENTAL_SYSTEM>
human ether-à-go-go-related gene (hERG) potassium channel (human)

>  <QUANTITATIVE_READOUT>
19.2

$$$$
>  <INPUT_SMILES>
NC(=O)CCCn1c(C(=O)c2ccc(Cl)cc2)c2ccc(C(F)(F)F)cc2[n+]1[O-]

>  <EXPERIMENTAL_SYSTEM>
human ether-à-go-go-related gene (hERG) potassium channel (human)

>  <QUANTITATIVE_READOUT>
-80.1

$$$$
>  <INPUT_SMILES>
Cc1cc(-c2nn(-c3ccccc3F)cc2CN2CCC(O)CC2)c(C)s1

>  <EXPERIMENTAL_SYSTEM>
human ether-à-go-go-related gene (hERG) potassium channel (human)

>  <QUANTITATIVE_READOUT>
-0.852

$$$$
>  <INPUT_SMILES>
CN(C)C(=O)CSc1nc2ccccc2n1Cc1ccccc1

>  <EXPERIMENTAL_SYSTEM>
human ether-à-go-go-related gene (hERG) potassium channel (human)

>  <QUANTITATIVE_READOUT>
4.73

$$$$
>  <INPUT_SMILES>
Cc1cc(-c2nn(-c3ccccc3F)cc2CN2CCN(c3ccccn3)CC2)c(C)s1

>  <EXPERIMENTAL_SYSTEM>
human ether-à-go-go-related gene (hERG) potassium channel (human)

>  <QUANTITATIVE_READOUT>
10.2

$$$$
>  <INPUT_SMILES>
Cc1cc(-c2nn(-c3ccccc3F)cc2CN2CCN(c3ccncc3)CC2)c(C)s1

>  <EXPERIMENTAL_SYSTEM>
human ether-à-go-go-related gene (hERG) potassium channel (human)

>  <QUANTITATIVE_READOUT>
-69.3

$$$$

Q: Report measured hERG current change (%, negative = inhibition) at 1uM; entry is Cc1ccc(-c2cc(-c3ccccc3)cc(-c3ccccc3)[n+]2-c2ccc(C(=O)O)cc2)cc1.[O-][Cl+3]([O-])([O-])[O-]
Result: 7.88
